The measurements presented in this section are drawn from patent US20120088772A1.

- System under test: BEC1 potassium channel (Homo sapiens)
- Sequence (Q9ULD8 whole entry): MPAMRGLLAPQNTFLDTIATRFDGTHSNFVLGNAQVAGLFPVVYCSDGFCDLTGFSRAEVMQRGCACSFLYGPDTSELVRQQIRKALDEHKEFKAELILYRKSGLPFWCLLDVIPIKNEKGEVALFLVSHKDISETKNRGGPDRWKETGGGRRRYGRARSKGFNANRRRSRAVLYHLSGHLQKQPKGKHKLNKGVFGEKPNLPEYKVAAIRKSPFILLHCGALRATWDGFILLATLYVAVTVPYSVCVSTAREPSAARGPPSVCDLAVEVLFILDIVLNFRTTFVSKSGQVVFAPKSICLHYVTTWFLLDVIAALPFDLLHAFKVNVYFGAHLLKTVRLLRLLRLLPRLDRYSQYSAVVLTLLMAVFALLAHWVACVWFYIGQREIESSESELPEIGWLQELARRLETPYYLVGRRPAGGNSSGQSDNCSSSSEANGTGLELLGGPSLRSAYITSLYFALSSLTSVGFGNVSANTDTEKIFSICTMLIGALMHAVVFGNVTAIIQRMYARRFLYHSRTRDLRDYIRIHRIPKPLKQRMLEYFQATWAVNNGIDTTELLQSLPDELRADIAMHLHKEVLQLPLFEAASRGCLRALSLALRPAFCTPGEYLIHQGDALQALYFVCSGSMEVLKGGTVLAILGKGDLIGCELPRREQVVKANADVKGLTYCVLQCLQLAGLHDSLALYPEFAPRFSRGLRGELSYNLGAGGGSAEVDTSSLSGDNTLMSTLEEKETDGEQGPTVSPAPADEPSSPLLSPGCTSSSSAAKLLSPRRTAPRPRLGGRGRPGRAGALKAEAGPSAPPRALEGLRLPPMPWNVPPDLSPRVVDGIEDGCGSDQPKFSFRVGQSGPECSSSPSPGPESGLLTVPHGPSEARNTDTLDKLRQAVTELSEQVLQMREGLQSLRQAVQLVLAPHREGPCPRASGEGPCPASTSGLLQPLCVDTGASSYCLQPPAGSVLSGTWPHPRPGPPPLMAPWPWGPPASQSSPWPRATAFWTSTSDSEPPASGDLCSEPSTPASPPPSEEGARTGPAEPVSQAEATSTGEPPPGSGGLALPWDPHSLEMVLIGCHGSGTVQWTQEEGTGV
- Protocol text: BEC1 inhibitory activity by 86Rb ion release from BEC1 expressing cells
- Measurement setup: 86Rb release, BEC1 stably expressing CHO (dhfr-deficient) cells, 100 mM KCl stimulation; read-out: BEC1 Inhibittory Activity IC50
Assay readout: pIC50
One number for each entry, as −log10 of the molar value.

Note to self: pIC50 recorded for Cl.Nc1nc(Nc2ccc(F)cc2)nc(N(Cc2ccnc(F)c2)c2ccccc2)n1 [(5), hydrochloride] was 7.07
